Biological target: T1, Peptide-2 (human, phosphothreonine 212, phosphothreonine 217 (tau 2N4R numbering); short chain biotin (SCBiot) and dPEG4 at the N-terminus; amide at the C-terminus)
T1 construct: also called pT212/pT217-tau peptide (Peptide-2)
T1 sequence (peptide, as listed by the source): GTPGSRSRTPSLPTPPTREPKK
Experiment: SPR ProteOn, mAb captured, peptide as analyte; range of n=2
valueKind: Kd

Exercise: Value lookup for Kd; key = B234 (antibody, human IgG1, V domains shown, Mouse PT3 variable regions (VH10/VL7) with human IgG1/kappa constant region; also called mouse PT3, hIgG1) VH: EVKLVESGGDLVKPGGSLKLSCAASGFTFSSYAMSWVRQNPEKRLEWVASISKGGNTYYPNSVKGRFTISRDNARNILYLQMSSLRSEDTALYYCARGWGDYGWFAYWGQVTLVTVSA VL: DIKMTQSPSSMYASLGERVTITCKASQDINRYLNWFQQKPGKSPKTLIYRANRLLDGVPSRFSGSGSGQDYSLTISSLDYEDMGIYYCLQYDEFPLTFGDGTKLELK
Solution: 0.0278 to 0.0306 nM

Exercise: Value lookup for Kd; key = B235 (antibody, human IgG1, V domains shown, Humanized (HFA) PT3 variant, human IgG1/kappa; also called VH91/VL77) VH: EVQLLESGGGLVQPGGSLRLSCAASGFTFSSYAMSWVRQAPGKGLEWVSSISKGGNTYYADSVKGRFTISRDNSKNTLYLQMNSLRAEDTAVYYCAKGWGDYGWFAYWGQVTLVTVSS VL: DIQMTQSPSSLSASVGDRVTITCKASQDINRYLNWFQQKPGKAPKSLIYRANRLLDGVPSRFSGSGSGTDFTLTISSLQPEDFATYYCLQYDEFPLTFGQGTKLEIK
Solution: 1.71 to 1.86 nM

Exercise: Value lookup for Kd; key = B282 (antibody, human IgG1, V domains shown, Humanized (HFA) PT3 variant, human IgG1/kappa; also called VH93/VL77) VH: QVQLVESGGGLVKPGGSLRLSCAASGFTFSSYAMSWIRQAPGKGLEWVSSISKGGNTYYADSVKGRFTISRDNAKNSLYLQMNSLRAEDTAVYYCARGWGDYGWFAYWGQVTLVTVSS VL: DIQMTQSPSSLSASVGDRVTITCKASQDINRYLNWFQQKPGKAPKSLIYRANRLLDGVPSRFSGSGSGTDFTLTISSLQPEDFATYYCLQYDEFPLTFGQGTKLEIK
Solution: 0.36 to 0.529 nM

Exercise: Value lookup for Kd; key = B296 (antibody, human IgG1, kappa, V domains shown, Humanized PT3, human IgG1/kappa; also called VH92/VL77; HFA-PT3) VH: QVQLVESGGGVVQPGRSLRLSCAASGFTFSSYAMSWVRQAPGKGLEWVASISKGGNTYYADSVKGRFTISRDNSKNTLYLQMNSLRAEDTAVYYCARGWGDYGWFAYWGQVTLVTVSS VL: DIQMTQSPSSLSASVGDRVTITCKASQDINRYLNWFQQKPGKAPKSLIYRANRLLDGVPSRFSGSGSGTDFTLTISSLQPEDFATYYCLQYDEFPLTFGQGTKLEIKR
Solution: 0.125 to 0.255 nM
